test system: SF-268 CNS; experiment: NCI-60 one-dose screen, 48 h (100 = growth as untreated, 0 = no growth, -100 = all killed); details: 10 µM unless noted
This is part of a sample that, as a whole, favours compounds with a hit. Of some 83,000 tested, about 20% had one in any assay.
Reported growth values follow for various molecules
MEASURED QUANTITY: growth (%)

>>> recorded_value("COC(=O)[C@]12CC[C@@H](C)[C@H](C)[C@@H]1C1=CC[C@@H]3[C@@]4(C)C(c5ncon5)=C[C@@](C)(CO)C4=CC[C@@]3(C)[C@]1(C)CC2")
-7.68
>>> recorded_value("Cc1cc(N2CCCCC2)nc(N(CCCNc2ccnc3cc(Cl)ccc23)Cc2ccco2)n1")
44
>>> recorded_value("Brc1ccc2[nH]cc(-c3nc(-c4c[nH]c5ncccc45)cs3)c2c1")
59
>>> recorded_value("CCCCCC1CCCCN1C(=O)OCC (centres undefined)")
99.7
>>> recorded_value("C=C1C(=O)O[C@H]2[C@H]1CC/C(COC(=O)NCc1cc3ccccc3[nH]1)=C\\CC[C@@]1(C)O[C@@H]21")
59.3
>>> recorded_value("COc1ccc(-c2nc(Nc3ccc(-c4nc5ccccc5[nH]4)cc3)nc(N3CCOCC3)n2)cc1")
34.1
>>> recorded_value("c1ccc2[nH]c(-c3ccc(Nc4nc(N5CCCCC5)nc(N5CCOCC5)n4)cc3)nc2c1")
33.8
>>> recorded_value("Fc1ccc(Nc2nc(Nc3ccc(-c4nc5ccccc5[nH]4)cc3)nc(N3CCCC3)n2)cc1")
91.2
>>> recorded_value("CC1(C)[C@@H](O)CC[C@]2(C)[C@H]3CC[C@@H]4[C@H]5[C@H](C(=O)/C=C/c6ccc(C(F)(F)F)cc6)CC[C@]5(CO)CC[C@@]4(C)[C@]3(C)CC[C@@H]12")
75.5
>>> recorded_value("COc1cc(-c2cc3cc(O)ccc3oc2=O)cc(OC)c1OC")
102
>>> recorded_value("COC(=O)[C@]12CC[C@@H](C)[C@H](C)[C@@H]1C1=CC[C@@H]3[C@@]4(C)C[C@@H](OC(C)=O)[C@H](O)[C@@](C)(COC(C)=O)[C@@H]4[C@H](O)C[C@@]3(C)[C@]1(C)CC2")
-71.9
>>> recorded_value("O=c1c(CNc2ccc(S(=O)(=O)Nc3ncccn3)cc2)coc2ccccc12")
108
>>> recorded_value("COc1cccc(-c2nn(-c3ccccc3)cc2-c2ccnc(NCCNS(=O)(=O)c3cccc(F)c3)c2)c1")
48.1
>>> recorded_value("COc1ccc(NC(=O)c2ccc3c(c2)nc(-c2cc4ccccc4[nH]c2=O)n3-c2cc(C(C)(C)C)[nH]n2)cc1")
79.3
>>> recorded_value("Cc1ccc(-c2nc([P+](c3ccccc3)(c3ccccc3)c3ccccc3)c(N3C[C@H]4C[C@H](C3)c3cccc(=O)n3C4)o2)cc1")
91.1
>>> recorded_value("O=C1C=C(C(O)c2ccc(O)cc2)C(=O)c2ccccc21 (centres undefined)")
108
>>> recorded_value("Cn1cc(-c2csc(-c3c[nH]c4ccc(F)cc34)n2)c2cccnc21")
51.1
>>> recorded_value("Oc1ccccc1/C=N\\NC(=S)Nc1ccc(F)cc1")
27.8
>>> recorded_value("COc1cc2c(cc1-c1c(C)noc1C)ncc1nc(C3CCCCC3)n([C@@H](C)COC(F)F)c12")
55.6
>>> recorded_value("CN(C)CCCCC(C(=O)CBr)(c1ccccc1)c1ccccc1")
48.7
>>> recorded_value("O=[N+]([O-])c1ccc(/C=N\\Nc2ccccc2)cc1")
73.5
>>> recorded_value("O=C1CNCCN1")
107
>>> recorded_value("OCC(CO)(CCl)CCl")
98
>>> recorded_value("CCCCCCCCNc1cccc2c1C(=O)c1ccccc1C2=O")
94.9
>>> recorded_value("Nc1nc2c(c(=O)[nH]1)C(c1ccc3c(c1)OCO3)C=C(C(=O)O)N2 (centres undefined)")
112
>>> recorded_value("c1ccc2c(-c3nc(-c4c[nH]c5ncccc45)cs3)c[nH]c2c1")
111
>>> recorded_value("CN1CCN(CC#CCn2c3c(c4ccccc42)C[C@]2(C)[C@H]4CC[C@@H]5[C@H]6[C@H]7OC(=O)[C@@]6(CCC7(C)C)CC[C@@]5(C)[C@]4(C)CC[C@H]2C3(C)C)CC1")
92.9
>>> recorded_value("Cc1ccc(-c2ccc(/C=C(\\C#N)c3nc(-c4ccco4)cs3)o2)cc1")
107
>>> recorded_value("CCSc1ncnc2c1ncn2C1OC(CO)C(O)C1O (centres undefined)")
19.4
>>> recorded_value("Cn1cc(-c2csc(-c3cn(CCCN4CCCCC4)c4ccccc34)n2)c2cccnc21")
-25.6
>>> recorded_value("Fc1ccc2nc(-c3cc(-c4ccc5c(c4)OCO5)n[nH]3)[nH]c2c1")
77.5
>>> recorded_value("O=c1c(CNc2ccc(S(=O)(=O)Nc3nccs3)cc2)coc2ccccc12")
113
>>> recorded_value("C=C1C(=O)O[C@H]2[C@H]1CC/C(COC(=O)N[C@H](Cc1c[nH]c3ccccc13)C(=O)OC)=C\\CC[C@@]1(C)O[C@@H]21")
72.6
>>> recorded_value("O=C(O)c1cccc2c1Cc1cc([N+](=O)[O-])ccc1-2")
104

###

Tested on: HCT-15 colon
Assay: NCI-60 one-dose screen, 48 h
Conditions: 10 µM unless noted
Experimental: Growth inhibition of the HCT-15 human tumor cell line is measured as a screen for anti-cancer activity. Cells are grown in 96 well plates and exposed to the test compound for 48 hours. Compounds are tested at a single concentration, which is 10^-5 M for most compounds. The reported endpoint is percent growth (GI% or GIPRCNT), where numbers from 0 - 100% represent growth inhibition, and numbers from -100% - 0 represent cell death. For example, a value of 40 represents 60% growth inhibition. […]
About 83,000 compounds went through this panel and 20% of them were active in at least one assay; those are over-represented in the sample as a whole. Calls of active or inactive are those of the source. The calls were made as follows: active = growth percent below 10; inactive = the rest.
Outcome codes: Yes for active, No for inactive

>>> label("NC(Cc1ccc(O)cc1)C(=O)N/N=C/c1ccccc1O (stereo not given)")
"No"
>>> label("Cc1ccc(-c2ccc(/C=C(\\C#N)c3nc(-c4ccco4)cs3)o2)cc1")
"No"
>>> label("Cn1c(=O)c2c(nc(Br)n2CC(=O)Nc2ccc(F)cc2)n(C)c1=O")
"No"
>>> label("C[C@]12CC[C@@H]3c4ccc(O)cc4CC[C@H]3[C@@H]1C[C@H](O)[C@@H]2O")
"No"
>>> label("Nc1c(Cl)cc(N=Nc2ccccc2)cc1Cl")
"No"
>>> label("CCCCC[C@H]1C/C=C2/C(=O)C=C[C@@H]2C/C=C\\CCCC(=O)O[C@@H](CCCCC)C/C=C2/C(=O)C=C[C@@H]2C/C=C\\CCCC(=O)O1")
"Yes"
>>> label("O=[N+]([O-])c1ccc(/C=N\\Nc2ccccc2)cc1")
"No"
>>> label("Cc1ccc(-c2nc3ccc(Cl)cc3c(=O)n2N2C(=O)CSC2c2ccccc2Cl)cc1 (stereo not given)")
"No"
>>> label("Cc1nnc2nc(N)[nH]n2c1=O")
"No"
>>> label("CCN1CCN(C(=O)[C@@]2(C)CC[C@]3(C)CC[C@]4(C)C(=CC(=O)[C@@H]5[C@@]6(C)CC[C@H](OC7C[C@@H](O)[C@@H](O)C(C)O7)C(C)(C)[C@@H]6CC[C@]54C)[C@@H]3C2)CC1 (stereo not given in full)")
"No"
>>> label("CC[C@H](CC[C@@H](C)[C@H]1CC[C@H]2[C@@H]3/C(=C/c4cccnc4)C(=O)C4=CC(=O)CC[C@]4(C)[C@H]3CC[C@]12C)C(C)C")
"No"
>>> label("COc1cc2nc(Cl)nc(Nc3cccc(C(=O)/C=C/c4ccccc4)c3)c2cc1OC")
"Yes"
>>> label("COc1ccc(NC(=O)c2ccoc2COc2ccccc2)cc1")
"No"
>>> label("Cc1cccc(C)c1NCc1nc(-c2ccccc2)n[nH]1")
"No"
>>> label("O=C1c2ccccc2NC(c2cn(-c3ccccc3)nc2-c2cccs2)N1Cc1ccccc1 (stereo not given)")
"No"
>>> label("COc1ccc(NC(=S)N/N=C/c2ccccc2SSCCC(=O)OC[C@H]2O[C@H](O)[C@H](O)[C@@H](O)[C@@H]2O)cc1")
"No"
>>> label("C=C(C)[C@@H]1CC[C@]2(C(=O)O)CC[C@]3(C)[C@H](CC[C@@H]4[C@@]5(C)C/C(=C/c6ccc(OC)cc6)C(=O)C(C)(C)[C@@H]5CC[C@]43C)[C@@H]12")
"Yes"
>>> label("Cc1ccc(-c2ccc(Nc3ccccc3)nn2)cc1S(N)(=O)=O")
"No"
>>> label("Cn1c(=O)c2c(ncn2CC(=O)Nc2ccc(S(N)(=O)=O)cc2)n(C)c1=O")
"No"
>>> label("COC(=O)[C@]12CC[C@@H](C)[C@H](C)[C@@H]1C1=CC[C@@H]3[C@@]4(C)C[C@@H](OC(C)=O)[C@H](O)[C@@](C)(CO)[C@@H]4[C@H](O)C[C@@]3(C)[C@]1(C)CC2")
"Yes"
>>> label("COc1ccc(CCN2C(=O)C(C)(C)SC2=S)cc1OC")
"No"
>>> label("Cc1cc2nc3c4cc(O)ccc4n(CCN(C)C)c3nc2cc1C")
"Yes"
>>> label("Cc1cc(N(CCNc2ccnc3cc(Cl)ccc23)Cc2ccco2)nc(Cl)n1")
"Yes"
>>> label("CC(=O)c1c(C)[nH]c(-c2nc3ccc(N4CCN(C)CC4)cc3[nH]2)c1-c1ccc(OCC2CCOCC2)cc1")
"Yes"
>>> label("N#CCCCCCn1c2ccccc2c2c3[nH]c(=O)[nH]c(=O)c3c3c4ccccc4n(CCCCCC#N)c3c21")
"No"
